Recorded values, source a melting point compilation (Tetko et al.; mined from patent text by program, amines drawn as free bases though some values may be those of a salt).

Some molecules, each annotated with its measured melting point.

Observe how each entry below is paired with its result.
> print(dat)
                                   molecule         result
1     CCC(NC(C)=O)C(=O)O (stereo not given)  128 to 130 °C
2  C[C@@H](c1ccc(Br)cc1)N(CC[C@](O)(CC(C)(C)O)c1ccccc1)C(=O)Oc1ccccc1  129 to 131 °C
3          Cc1c(Br)cc(C(C)(C)C)c(O)c1C(=O)O    54 to 58 °C
4  CCOc1cc(CF)nc2nc(S(=O)(=O)Nc3c(Cl)ccc(C)c3Cl)nn12  197 to 200 °C

Moving on to another molecule below.
QUERY: Can you share its melting point? I mean this molecule: CC(=O)c1ccc(C(=O)N2Cc3ccnn3Cc3ccccc32)cc1
RESULT: 201 to 210 °C

###

Some compounds, each annotated with its measured melting point.

> print(dat)
                                   compound         result
1                 COC(=O)C(C(=O)O)=C1SC=CS1    48 to 51 °C
2                       O=c1ccc2cnccc2[nH]1  295 to 297 °C
3  CCCCCCOC(=O)C(=O)Nc1cc(C#N)cc(NC(=O)C(=O)OCCCCCC)c1Cl    82 to 84 °C

QUERY: Can you share its melting point? I mean this compound: CC(C)(C)C(NC(=O)Cc1ccc(Cl)cc1)NC(Cc1cccc2ncccc12)=NC#N (configuration not stated)
RESULT: 186 to 188 °C

###

measurement-type: melting point

Observe how each entry below is paired with its result.
> print(dat)
                                   molecule  measurement.type         result
1  CC(=O)NC[C@H]1CN(c2ccc(N3CC(N(C)CCF)C3)c(F)c2)C(=O)O1     melting point  126 to 127 °C
2  O=C1CC(c2cccc(-n3ccnn3)c2)=Nc2cc(O)c(-c3ccccc3F)cc2N1     melting point       > 250 °C
3  CC(O)CN(CC(C)O)C1CC(C)(C)NC(C)(C)C1 (stereo unspecified)     melting point   97 to 102 °C
4    CSc1nc(Cl)c(-c2c(F)cccc2Cl)c(NC(C)C)n1     melting point    94 to 98 °C
5  O=C(Oc1ccccc1)OC1c2ccccc2C(=O)N1c1ccc2ccc(Cl)nc2n1 (stereo unspecified)     melting point         235 °C

QUERY: Can you share its melting point? I mean this molecule: COc1ccc(CCNCC(O)c2ccc(OCc3ccccc3)cc2OCc2ccccc2)cc1OC (stereo unspecified)
RESULT: 116 to 117 °C

QUERY: Request: CC(C=CC(C)C(C)(C)O)C1CCC2C(=O)CCCC21C (stereo unspecified)
RESULT: 101 to 102 °C

QUERY: Request: C=C(CCCCC)C(=O)c1ccc(OCC(=O)O)c(Cl)c1Cl
RESULT: 103 to 106 °C

QUERY: Request: NC(=NO)c1nc(Cl)c(-c2c(F)cccc2Cl)c(Cl)c1Br
RESULT: 132 °C

QUERY: Request: CCCn1c(=O)c2c(nn3cc[nH]c23)n(Cc2ccccc2)c1=O
RESULT: 290 to 292 °C

QUERY: Request: CCOC(=O)c1cnc2n(c1=O)CCc1ccccc1-2
RESULT: 117 to 125 °C

###

Some compounds, each annotated with its measured melting point.

Observe how each entry below is paired with its result.
> print(dat)
                                   compound  measurement.type         result
1                            NCCc1ccc(N)cn1     melting point    42 to 45 °C
2  CC(=O)Nc1c(C#N)cnn1-c1c(F)c(F)c(C(F)(F)F)c(F)c1F     melting point  153 to 154 °C
3  O=C(Nc1cc2ncc(CN3CCCC3)cc2cc1F)c1ccc(-c2ccc(OC(F)(F)F)cc2)cc1     melting point  184 to 187 °C
4  CC(C)(C)OC(=O)c1nn(-c2ccc(Cl)cc2Cl)c(-c2ccc(Cl)cc2)c1CBr     melting point         139 °C
5  C#CCc1c(C)nc2c(OCc3c(C)cccc3NC(=O)C(C)=O)cccn12     melting point  158 to 160 °C
6  CCN(CC)c1ccc(C2(c3ccc(N(C)C)cc3N(C)C)OC(=O)c3cc(N(C)C)ccc32)cc1 (stereo not given)     melting point  123 to 125 °C
7  O=c1ccc(-c2cccc(-c3ccc(=O)[nH]n3)c2)n[nH]1     melting point       > 250 °C
8  CCCCCCCN(Cc1ccc(C(C)(C)C)cc1)C(Nc1ccc(-c2ccccc2)cc1)=C1C(=O)COC1=O     melting point  190 to 192 °C

QUERY: Can you share its melting point? I mean this compound: COC(=O)c1cc2cc(-c3ccc(C)cc3)ccc2nc1C
RESULT: 84 to 87 °C

QUERY: Request: CC(C)c1cc2c(cc1O)C(C)(C)CCC2(C)C
RESULT: 79 to 80 °C

###

measurement-type: melting point

Observe how each entry below is paired with its result.
> print(dat)
                                   compound         result
1  COC(=O)c1nc2n(n1)-c1ccccc1N(c1cccc(C(F)(F)F)c1)C2  204 to 206 °C
2            CCN1C(=O)Cc2cccc(OC(=O)CCl)c21  105 to 110 °C
3    CCNC(=O)Oc1ccc2c(N(C)CCN3CCOCC3)noc2c1   99 to 100 °C

QUERY: Can you share its melting point? I mean this compound: Cc1nn(-c2ccccn2)c2[nH]c3ccc(C(F)(F)F)cc3c(=O)c12
RESULT: 250 to 251 °C

QUERY: Request: Cc1ccc(S(=O)(=O)OCCC2Cc3ccccc3O2)cc1 (stereo not given)
RESULT: 51 to 54 °C

###

measurement-type: melting point

QUERY: Can you share its melting point? I mean this compound: CC(C)(C)c1cc(-c2cncn2CCCCl)cc(C(C)(C)C)c1O
RESULT: 178 to 179 °C

QUERY: Request: CN1C(=O)C(=Cc2cc(C(C)(C)C)c(O)c(C(C)(C)C)c2)SC1=S
RESULT: > 230 °C

QUERY: Request: CC(C)(C)OC(=O)N1CCC(OCc2ccccc2)C1CC(=O)Cn1cnc2cccc(C(F)(F)F)c2c1=O (stereo not given)
RESULT: 218 °C

QUERY: Request: CCCc1c(OCCCCCCCC(=O)OC)ccc(C(C)=O)c1O
RESULT: 39 to 41 °C

QUERY: Request: Cc1nc2c(Cl)c(NC(=O)Cc3ccc(Cl)cc3)ccc2s1
RESULT: 227 to 229 °C

###

measurement-type: melting point

Observe how each entry below is paired with its result.
> print(dat)
                                   compound  measurement.type         result
1  O[C@@H]1C=C[C@H](COC(c2ccccc2)(c2ccccc2)c2ccccc2)C1 (relative stereo)     melting point    94 to 96 °C
2  CCOC(=O)C=Cc1ccc2c(c1)CC(CNC(=O)OC(C)(C)C)CC2 (stereo not given)     melting point  117 to 119 °C
3  Cc1sccc1C1=C(c2ccsc2C)C(F)(F)C(F)(F)C1(F)F     melting point        73.6 °C
4  COc1ccc2ncc(NC(=O)C=Cc3cc(OC)c(OC(C)=O)c(OC)c3)c(-c3ccccc3)c2c1     melting point  273 to 275 °C

QUERY: Can you share its melting point? I mean this compound: CN=C(NC#N)C1=CC(CF)(CF)Oc2ccc(C(F)(F)C(F)(F)F)cc21
RESULT: 178 to 179 °C

###

Some molecules, each annotated with its measured melting point.

> print(dat)
                                   molecule         result
1  O=C(Nc1ccc2cc(CN3CCCC3)cnc2c1)N1CCC(c2ccc(Cl)cc2)CC1  249 to 251 °C
2  CCCN1C(=O)N2C[C@@H](Cc3ccccc3)N=C2c2[nH]c([C@H]3CC[C@H](CN)CC3)nc21    70 to 71 °C
3    Clc1ccc2nc(Cl)c3ncn(-c4ccccc4Cl)c3c2c1  194 to 200 °C
4                      N#Cc1ccc2oc(CO)cc2c1  113 to 114 °C
5  CC1COc2c(N3CCN(C#N)CC3NC(=N)N)c(F)cc3c(=O)c(C(=O)O)cn1c23 (stereo not given)  298 to 300 °C

QUERY: Can you share its melting point? I mean this molecule: COc1ccc(Cl)cc1C(=O)NCCc1ccc(I)c(S(=O)(=O)N=CN(C)C)c1
RESULT: 183 to 186 °C

QUERY: Request: Cc1c(C(=O)c2cnn(C(C)(C)C)c2O)ccc(S(C)(=O)=O)c1C1=NOC2CC12 (stereo not given)
RESULT: 69 to 74 °C

QUERY: Request: CN(C)C(N)=Nc1ccccc1N1CCOCC1
RESULT: 143 to 144 °C

QUERY: Request: O=C(O)c1ncc(OCc2ccccc2)c(OCc2ccccc2)c1Br
RESULT: 155 to 157 °C

QUERY: Request: CC(C)CNc1c([N+](=O)[O-])c2nnnn2c2cnccc12
RESULT: 173 to 174 °C
